// data source = ChEMBL document CHEMBL1142742

# Test description: Minimum inhibitory concentration against Microsporum species (n=38)
# Format: functional
# Condition parameters: Microsporum; read-out: MIC90
Some compounds, each annotated with its measured MIC90.
Recorded endpoint: MIC90

CCCn1c(=O)n(CC)c(=O)n(-c2ccc(N3CCN(c4ccc(OC[C@H]5CO[C@](Cn6cncn6)(c6ccc(F)cc6F)O5)cc4)CC3)cc2)c1=O : 13 µg/mL
CCCn1c(=O)n(CC)c(=O)n(-c2ccc(N3CCN(c4ccc(OC[C@@H]5OC[C@@](Cn6cncn6)(c6ccc(F)cc6F)O5)cc4)CC3)cc2)c1=O : > 20 µg/mL
CCN1C(=O)N(c2ccc(N3CCN(c4ccc(OC[C@H]5OC[C@](Cn6cncn6)(c6ccc(F)cc6F)O5)cc4)CC3)cc2)C(=O)C(C)(C)C1=O : > 20 µg/mL

----------
# System: Trichophyton rubrum
# Test description: Minimum inhibitory concentration against Trichophyton rubrum (n=14)
# Assay type: functional
# Condition parameters: Trichophyton rubrum; read-out: MIC50
Recorded endpoint: MIC50 (µg/mL)

CCN1C(=O)N(c2ccc(N3CCN(c4ccc(OC[C@H]5OC[C@](Cn6cncn6)(c6ccc(F)cc6F)O5)cc4)CC3)cc2)C(=O)C(C)(C)C1=O : 3.2
CC(C)N1CCN(c2ccc(N3CCN(c4ccc(OC[C@@H]5CO[C@@](Cn6cncn6)(c6ccc(F)cc6F)O5)cc4)CC3)cc2)C1=O : 0.32
CCC1C(=O)N(CC)C(=O)N(c2ccc(N3CCN(c4ccc(OC[C@@H]5CO[C@@](Cn6cncn6)(c6ccc(F)cc6F)O5)cc4)CC3)cc2)C1=O (stereo partly drawn) : 3.2

----------
Some compounds, each annotated with its measured ED50.
# Species on record: Cavia porcellus
# Test description: Effective dose was measured in guinea pig infected with Microsporum canis on 14th day
# Format: functional
# Condition parameters: Cavia porcellus; read-out: ED50
Recorded endpoint: ED50

CCN1C(=O)N(c2ccc(N3CCN(c4ccc(OC[C@H]5CO[C@](Cn6cncn6)(c6ccc(F)cc6F)O5)cc4)CC3)cc2)C(=O)C(C)(C)C1=O : > 5 mg/kg
CCCn1c(=O)n(CC)c(=O)n(-c2ccc(N3CCN(c4ccc(OC[C@H]5CO[C@](Cn6cncn6)(c6ccc(F)cc6F)O5)cc4)CC3)cc2)c1=O : > 2.5 mg/kg
CCCn1c(=O)n(CC)c(=O)n(-c2ccc(N3CCN(c4ccc(OC[C@@H]5OC[C@@](Cn6cncn6)(c6ccc(F)cc6F)O5)cc4)CC3)cc2)c1=O : > 2.5 mg/kg

----------
Some molecules, each annotated with its measured MIC50.
# Tested on: Candida
# Test description: Minimum inhibitory concentration against Candida species (n=24)
# Assay type: functional
# Condition parameters: Candida; read-out: MIC50
Recorded endpoint: MIC50

CCN1C(=O)N(c2ccc(N3CCN(c4ccc(OC[C@H]5CO[C@](Cn6cncn6)(c6ccc(F)cc6F)O5)cc4)CC3)cc2)C(=O)C(C)(C)C1=O : 0.66 µg/mL
CN(C/C=C/C#CC(C)(C)C)Cc1cccc2ccccc12 : 20 µg/mL
CC(C)N1CCN(c2ccc(N3CCN(c4ccc(OC[C@@H]5CO[C@@](Cn6cncn6)(c6ccc(F)cc6F)O5)cc4)CC3)cc2)C1=O : 0.32 µg/mL
CCC(C)n1ncn(-c2ccc(N3CCN(c4ccc(OC[C@H]5CO[C@](Cn6cncn6)(c6ccc(Cl)cc6Cl)O5)cc4)CC3)cc2)c1=O (some centres undefined) : 0.1 µg/mL
